- Tested on: RoundUp Ready GLXMA (HT variety soybean)
- assay.remarks: Greenhouse evaluation of broadleaf volunteer crop control, RoundUp ready soybean
- Format: in vivo, Glycine max
- recorded.conditions: Glycine max, 504 h, 4.4 g ae/ha; greenhouse, 2 to 3 leaf stage; after 21 days; 0 no injury, 100 complete kill; read-out: Average Percent Crop Control after Treatment, RoundUp Ready GLXMA
Could you please report measured pest or weed control at 4.4 g/ha for the items listed next?
One number for each entry, in %.

The following compounds have reported results that may help.
compound	units.of.measure	pest or weed control at 4.4 g/ha
Cc1ccc(-c2cc(N)c(Cl)c(C(=O)O)n2)cc1	%	100
COc1c(Cl)ccc(-c2nc(C(=O)O)c(Cl)c(N)c2F)c1F [drawing 11]	%	93
Cc1c(Cl)ccc(-c2cc(N)c(Cl)c(C(=O)O)n2)c1F	%	98
COc1c(Cl)ccc(-c2cc(N)c(Cl)c(C(=O)O)n2)c1F [drawing 15]	%	100
COC(=O)c1nc(-c2ccc(Cl)cc2OC)cc(N)c1Cl	%	100

List reported pest or weed control at 4.4 g/ha for each of these compounds:
1. Nc1cc(-c2ccc(Cl)cc2F)nc(C(=O)O)c1Cl
2. Nc1c(F)c(-c2ccc3c(c2)OCO3)nc(C(=O)O)c1Cl

Output:
1: 100; 2: 73
